- Assayed System: Transient receptor potential cation channel subfamily M member 4 (Homo sapiens, UniProt Q8TD43)
- Sequence (Q8TD43 whole entry): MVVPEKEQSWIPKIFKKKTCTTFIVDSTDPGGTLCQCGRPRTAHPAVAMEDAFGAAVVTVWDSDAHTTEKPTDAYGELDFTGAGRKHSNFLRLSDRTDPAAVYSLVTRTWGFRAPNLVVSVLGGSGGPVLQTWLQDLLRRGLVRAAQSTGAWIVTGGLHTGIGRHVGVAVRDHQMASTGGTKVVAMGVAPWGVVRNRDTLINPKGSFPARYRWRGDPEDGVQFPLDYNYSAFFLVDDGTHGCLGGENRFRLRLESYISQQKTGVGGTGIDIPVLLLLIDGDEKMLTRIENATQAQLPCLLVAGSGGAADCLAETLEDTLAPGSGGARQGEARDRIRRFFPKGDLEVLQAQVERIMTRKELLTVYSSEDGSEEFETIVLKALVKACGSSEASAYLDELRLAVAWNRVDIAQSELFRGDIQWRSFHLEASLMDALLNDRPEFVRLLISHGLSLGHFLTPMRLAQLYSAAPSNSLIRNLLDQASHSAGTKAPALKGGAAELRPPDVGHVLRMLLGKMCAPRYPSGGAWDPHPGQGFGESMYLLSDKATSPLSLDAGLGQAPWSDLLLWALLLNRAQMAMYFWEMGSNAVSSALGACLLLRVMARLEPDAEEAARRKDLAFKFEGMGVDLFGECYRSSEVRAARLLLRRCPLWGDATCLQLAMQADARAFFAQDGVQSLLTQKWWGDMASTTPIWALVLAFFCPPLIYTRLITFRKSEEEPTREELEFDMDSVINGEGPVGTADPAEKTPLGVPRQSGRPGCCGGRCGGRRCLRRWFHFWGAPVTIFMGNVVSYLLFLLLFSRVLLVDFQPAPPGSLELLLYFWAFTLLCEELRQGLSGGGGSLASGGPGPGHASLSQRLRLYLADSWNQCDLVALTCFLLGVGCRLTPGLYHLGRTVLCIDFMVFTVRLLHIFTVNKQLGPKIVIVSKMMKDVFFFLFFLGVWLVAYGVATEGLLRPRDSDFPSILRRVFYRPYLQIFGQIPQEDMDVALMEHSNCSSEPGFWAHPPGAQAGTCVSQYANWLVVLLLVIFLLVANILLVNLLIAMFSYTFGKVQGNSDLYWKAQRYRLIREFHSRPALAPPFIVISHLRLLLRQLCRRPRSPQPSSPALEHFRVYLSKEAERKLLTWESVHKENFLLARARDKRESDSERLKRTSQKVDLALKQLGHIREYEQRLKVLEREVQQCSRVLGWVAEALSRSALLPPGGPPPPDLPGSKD
Test Readout: IC50

q: I would be grateful if you could share the reported IC50 for "N#Cc1ccc(O[C@H]2CN(S(=O)(=O)c3ccc(Cl)cc3Cl)C[C@@]2(O)CO)cc1F" .
a: > 10 µM

====

- Assay Protocol: Lipophilicity, log D of the compound by chromatography
- Type: physicochemical
Test Readout: chromatographic logD
Numbers only.

Known chromatographic logD results, listed for orientation:
{"Chem Smiles": "N#Cc1ccc(OCC2(O)CCN(S(=O)(=O)c3ccc(Cl)cc3Cl)CC2)cc1F", "Result Number": 6.3}
{"Chem Smiles": "N#Cc1ccc(O[C@H]2CN(S(=O)(=O)c3ccc(C(F)(F)F)cc3C#N)C[C@@]2(O)CO)cc1F", "Result Number": 4.6}

Here is another compound to look at.
q: I would be grateful if you could share the reported chromatographic logD for "N#Cc1ccc(O[C@H]2CN(S(=O)(=O)c3ccc(Cl)cc3Cl)C[C@@]2(O)CO)cc1F" .
a: 4.6
